# MEASURED_ON: T1, SCRIB-34/4 (MBP fusion of the tandem of the third and fourth PDZ domains of SCRIB) (human, UniProt Q14160-1 997-1193)
# T1 construct: also called MBP-PDZ analyte SCRIB-34/4; tandem PDZ construct; source: E. coli BL21 DE3, purified (amylose column, Superdex 75 gel filtration)
# T1 sequence (looked up): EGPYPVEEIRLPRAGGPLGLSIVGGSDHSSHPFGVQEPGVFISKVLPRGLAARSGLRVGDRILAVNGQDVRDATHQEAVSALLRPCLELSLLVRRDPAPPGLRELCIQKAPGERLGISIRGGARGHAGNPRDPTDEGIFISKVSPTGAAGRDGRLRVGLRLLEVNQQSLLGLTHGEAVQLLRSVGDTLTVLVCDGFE
# PROTOCOL_SUMMARY: SPR
# SETUP_CONDITIONS: both partners purified
pKd: −log10 of the molar value. Ends that are not written are not given here. * marks the point of attachment. Biotin = O=C1N[C@H]2[C@H](CS[C@H]2CCCCC(=O)*)N1
Outcome: Satisfied for pKd of at least 5; Not satisfied for anything lower.

Biotin-SSRTRRETQL (source: synthetic peptide (JPT Peptide Technologies)) [16E6 (long peptide of HPV16 early protein E6: the last ten residues)]	Satisfied
Biotin-GSGAGSETSV (also called VANG2 short; source: synthetic peptide (JPT Peptide Technologies)) [VANG2_05 (short peptide of Vang-like protein 2: GSGAG and the last five residues)]	Satisfied
Biotin-VKRNSKETVV (also called MARCH3 long; source: synthetic peptide (JPT Peptide Technologies)) [MARCH3_10 (long peptide of E3 ubiquitin-protein ligase MARCH3: the last ten residues)]	Not satisfied
Biotin-VMRLQSETSV (also called VANG2 long; source: synthetic peptide (JPT Peptide Technologies)) [VANG2_10 (long peptide of Vang-like protein 2: the last ten residues)]	Satisfied
Biotin-GSGAGVETVV (also called MAS short; source: synthetic peptide (JPT Peptide Technologies)) [MAS_05 (short peptide of Proto-oncogene Mas: GSGAG and the last five residues)]	Not satisfied
Biotin-GSGAGHETIV (also called TMEM215 short; source: synthetic peptide (JPT Peptide Technologies)) [TMEM215_05 (short peptide of Transmembrane protein 215: GSGAG and the last five residues)]	Not satisfied

Switching to the query record.
// query Form field: pKd at least 5? Entry: Biotin-GSGAGKETVV (also called MARCH3 short; source: synthetic peptide (JPT Peptide Technologies)) [MARCH3_05 (short peptide of E3 ubiquitin-protein ligase MARCH3: GSGAG and the last five residues)]
// result Satisfied

FYI, the data here is from paper PMC3206016.
